System: 883617-216-R-J1-PDC complex spheroids, growth, % test/control;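 further: exposure lasted 7 days after dosing on day 3 of spheroid growth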
method-notes: Anticancer human tumor 883617-216-R-J1-PDC patient-derived bladder carcinoma cell line growth inhibition [AhR]
protocol-conditions: second compound 1 µM; first compound 0.0949 µM; hits give low values
endpoint-name: viability, T/C (%)
Report as a plain number; the unit % is understood.

883617-216-R-J1-PDC complex spheroids, growth, % test/control / viability, T/C / CCc1c2c(nc3ccc(O)cc13)-c1cc3c(c(=O)n1C2)COC(=O)[C@]3(O)CC + CC(CO)NC(=O)c1cc(-c2ccc(Cl)cc2)nn(-c2cnn(C)c2)c1=O : value?;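 further: exposure lasted 7 days after dosing on day 3 of spheroid growth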
89.4

I'm curious: which viability, T/C was measured for CCN(c1cc(-c2ccc(CN3CCOCC3)cc2)cc(C(=O)NCc2c(C)cc(C)[nH]c2=O)c1C)C1CCOCC1 + Cc1ccccc1N=Nc1ccc(NC(=O)c2ccnn2C)c(C)c1 tested on 883617-216-R-J1-PDC complex spheroids, growth, % test/control?;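 further: exposure lasted 7 days after dosing on day 3 of spheroid growth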
84

Return viability, T/C measured with 883617-216-R-J1-PDC complex spheroids, growth, % test/control given this compound: Nc1ncn(C2CC(O)C(CO)S2)c(=O)n1 (configuration not stated) + CC(CO)NC(=O)c1cc(-c2ccc(Cl)cc2)nn(-c2cnn(C)c2)c1=O
43.9

So what viability, T/C did CCN(c1cc(-c2ccc(CN3CCOCC3)cc2)cc(C(=O)NCc2c(C)cc(C)[nH]c2=O)c1C)C1CCOCC1 + CC(CO)NC(=O)c1cc(-c2ccc(Cl)cc2)nn(-c2cnn(C)c2)c1=O get with 883617-216-R-J1-PDC complex spheroids, growth, % test/control?
92.5

Provide value of viability, T/C for this record tested with 883617-216-R-J1-PDC complex spheroids, growth, % test/control: O=C(C=Cn1cnc(-c2cc(C(F)(F)F)cc(C(F)(F)F)c2)n1)NNc1cnccn1 + Cc1cncc(-c2nc(NCCc3c[nH]c4ccccc34)c3ncn(C(C)C)c3n2)c1
69.5

Observed viability, T/C on 883617-216-R-J1-PDC complex spheroids, growth, % test/control for CC(C)CC(NC(=O)C(Cc1ccccc1)NC(=O)c1cnccn1)B(O)O (configuration not stated) + CC(CO)NC(=O)c1cc(-c2ccc(Cl)cc2)nn(-c2cnn(C)c2)c1=O , please.
1.86

Param readout = viability, T/C; param system = 883617-216-R-J1-PDC complex spheroids, growth, % test/control; param query = CCc1c2c(nc3ccc(O)cc13)-c1cc3c(c(=O)n1C2)COC(=O)[C@]3(O)CC + Cc1ccccc1N=Nc1ccc(NC(=O)c2ccnn2C)c(C)c1 ; response: value;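 further: exposure lasted 7 days after dosing on day 3 of spheroid growth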
54.4

API: value(readout=viability, T/C, system=883617-216-R-J1-PDC complex spheroids, growth, % test/control) for record CCc1c2c(nc3ccc(O)cc13)-c1cc3c(c(=O)n1C2)COC(=O)[C@]3(O)CC + Cc1cncc(-c2nc(NCCc3c[nH]c4ccccc34)c3ncn(C(C)C)c3n2)c1;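 further: exposure lasted 7 days after dosing on day 3 of spheroid growth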
64.3

Param readout= viability, T/C; system= 883617-216-R-J1-PDC complex spheroids, growth, % test/control; entry= Nc1ncn(C2CC(O)C(CO)S2)c(=O)n1 (configuration not stated) + Cc1ccccc1N=Nc1ccc(NC(=O)c2ccnn2C)c(C)c1 ; returns value.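 Further: exposure lasted 7 days after dosing on day 3 of spheroid growth.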
76.1

Query viability, T/C on 883617-216-R-J1-PDC complex spheroids, growth, % test/control for Nc1ncn(C2CC(O)C(CO)S2)c(=O)n1 (configuration not stated) + Cc1cncc(-c2nc(NCCc3c[nH]c4ccccc34)c3ncn(C(C)C)c3n2)c1
92.4

Enter reported viability, T/C observed with 883617-216-R-J1-PDC complex spheroids, growth, % test/control for CCN(c1cc(-c2ccc(CN3CCOCC3)cc2)cc(C(=O)NCc2c(C)cc(C)[nH]c2=O)c1C)C1CCOCC1 + Cc1cncc(-c2nc(NCCc3c[nH]c4ccccc34)c3ncn(C(C)C)c3n2)c1
110

Entry CC(C)CC(NC(=O)C(Cc1ccccc1)NC(=O)c1cnccn1)B(O)O (configuration not stated) + Cc1ccccc1N=Nc1ccc(NC(=O)c2ccnn2C)c(C)c1 , system 883617-216-R-J1-PDC complex spheroids, growth, % test/control: what viability, T/C was measured?;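 further: exposure lasted 7 days after dosing on day 3 of spheroid growth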
0.03
